Taken from paper PMC7265341.

experimentalTarget: CDK8/Cyclin C (Homo sapiens, UniProt P49336)
Sequence (P49336 whole entry): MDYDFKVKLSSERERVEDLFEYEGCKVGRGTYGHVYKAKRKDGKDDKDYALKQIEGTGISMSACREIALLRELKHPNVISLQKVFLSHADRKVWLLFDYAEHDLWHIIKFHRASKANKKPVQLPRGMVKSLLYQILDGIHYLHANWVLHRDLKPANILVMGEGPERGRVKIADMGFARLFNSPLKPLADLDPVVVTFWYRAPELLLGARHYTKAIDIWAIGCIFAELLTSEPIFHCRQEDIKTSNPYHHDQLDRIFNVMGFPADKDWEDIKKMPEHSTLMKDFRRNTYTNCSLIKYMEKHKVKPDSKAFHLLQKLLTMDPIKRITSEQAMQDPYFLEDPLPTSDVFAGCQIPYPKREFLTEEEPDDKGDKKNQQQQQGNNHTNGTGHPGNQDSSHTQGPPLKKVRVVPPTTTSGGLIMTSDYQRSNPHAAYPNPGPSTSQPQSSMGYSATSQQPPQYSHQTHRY
Sequence (P24863 whole entry partner): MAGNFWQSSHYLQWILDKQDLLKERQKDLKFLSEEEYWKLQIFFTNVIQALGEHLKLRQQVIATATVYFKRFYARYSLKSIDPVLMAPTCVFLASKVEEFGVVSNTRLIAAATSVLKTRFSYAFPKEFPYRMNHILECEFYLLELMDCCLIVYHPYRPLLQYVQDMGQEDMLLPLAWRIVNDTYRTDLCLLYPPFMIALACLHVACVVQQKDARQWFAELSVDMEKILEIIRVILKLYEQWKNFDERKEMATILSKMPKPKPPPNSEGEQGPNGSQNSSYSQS
experimentDescription: NanoBRET live-cell target engagement, NanoLuc-CDK8/Cyclin C in HEK-293
Format: binding
conditionLabel: 10µM; independent experiment 2; read-out: CDK8/C Inhibition at 10µM (%)
recordedMetric: inhibition at 10 µM (%)

>>> numericvalue("CC(C)[C@H](CO)Nc1nc(Nc2ccc(C(=O)O)c(Cl)c2)c2ncn(C(C)C)c2n1")
-0.0599
>>> numericvalue("COCCN1CCN(Cc2ccc(-c3n[nH]c4c3C(=O)c3c(NC(=O)NN5CCOCC5)cccc3-4)cc2)CC1")
89.3
>>> numericvalue("CN(C)C/C=C/C(=O)Nc1ccc(C(=O)N2CCC[C@@H](Nc3ncc(Cl)c(-c4c[nH]c5ccccc45)n3)C2)cc1")
51.2

(a) CN1CCN(c2ccc(Nc3ncc4cc5n(c4n3)C3(CCCCC3)CNC5=O)nc2)CC1
(b) CC(=O)c1c(C)c2cnc(Nc3ccc(N4CCNCC4)cn3)nc2n(C2CCCC2)c1=O
(c) CC(C)CC(=O)Nc1[nH]nc2c1CN(C(=O)C1CCN(C)CC1)C2(C)C
(d) CN(C)C(=O)c1cc2cnc(Nc3ccc(N4CCNCC4)cn3)nc2n1C1CCCC1
(e) CN1C/C=C/CCOc2cccc(c2)-c2ccnc(n2)Nc2cccc(c2)C1
### Prompt # rank_down: sort by inhibition at 10 µM, max first Ranked list of labels, please, in the requested order.
### Response e, c, a, b, d
